Assign GI50 to each entry below.
Tested on: SN12C
Run description: NCI tumour cell line growth inhibition, 48 h
Activity calls are given as the source filed them. No stated cut-off is given here; in the data, active = GI50 up to about 1.1 µM and inactive = higher.

Answer with GI50 of "CC(C)NC(=O)OCc1c(COC(=O)NC(C)C)n(C)c2c1ccc1sccc12" measured for SN12C.
15.9 µM (inactive)

Would you please give the reported GI50 of CN(C)c1cccc2c1C(=O)C=CC21c2ccc(N(C)C)c3c(N(C)C)ccc(c23)C(c2ccccc2)C1c1ccccc1 (centres undefined) with SN12C?
10.8 µM (inactive)

Tell me its GI50 on SN12C: COC(=O)CC1CN(C(=O)OCc2ccccc2)C(C)(C)O1 (centres undefined)
> 100 µM (inactive)

Provide the reported GI50 (system: SN12C) for "Cc1c2ccccc2cc2ccc3oc([N+](=O)[O-])cc3c12"
> 100 µM (inactive)

====

Test system: KM12
Run description: NCI tumour cell line growth inhibition, 48 h
Calls of active or inactive are those of the source. Rule as the data show it: active = GI50 up to about 1.1 µM and inactive = higher.
Response enum: active, inactive

Please let me know the test result on file for Cc1ccccc1C1OC(=O)c2ccc3ccccc3c21 (configuration not stated) .
inactive

Lab log entry: "COc1cccc(-c2nc(-c3cnccn3)n(COCCO)n2)c1" — outcome as called in the assay?
inactive

Which outcome was assigned to CCC1C(=O)OCc2c1cc1n(c2=O)C(CC)c2c-1nc1ccccc1c2Cl (configuration not stated) in this test?
inactive

// return assay outcome for Clc1ccc2c(NCCCCN3OC3c3ccccc3)ccnc2c1 (configuration not stated)
inactive

Hi, do you know how "ClCCCN(CCCCl)c1ccc(/C=N/c2cccc(Cl)c2)cc1" came out in this test?
inactive

What was the test verdict on "CSc1cc(Cl)c(C)cc1S(=O)(=O)NC(=O)Nc1ccc(Cl)cc1" ?
inactive

Hi, do you know how "CCCCCCCCCCCC[C@H](O)[C@H]1CC[C@H]([C@H](O)CCCC[C@H](O)CCCCC[C@@H](O)CC2=C[C@H](C)OC2=O)O1" came out in this test?
inactive

What did the test return for "O=C(Nc1ccccc1Cl)c1ccc([N+](=O)[O-])cc1" ?
inactive

Dear colleague, could you share the recorded outcome for "CCOC(=O)/C=C(\C(=O)OCC)n1ccc(=O)n(CC(=O)OCC)c1=O" when you have a moment?
inactive

// return assay outcome for C[Si](C)(C)/C(Br)=C\CCN1C(=O)CCC1O (configuration not stated)
inactive

Identify the outcome logged in this assay for the compound shown: "CC1=CC(C)(C)N=C2SC(c3ccc(N)cc3)=NN12"
inactive

Test call, this compound: "COc1ccc(-c2cc(-c3ccc(Nc4ccnc5cc(C(F)(F)F)ccc45)cc3)nc(N)c2C#N)c2ccccc12"
inactive

How was OC1(c2ccccc2)CSC2=Nc3ccccc3C3CCN1N23 (configuration not stated) classified in this test?
inactive

Which outcome did this test record for the compound "Brc1cc2c(cc1Br)CN(c1ccccc1)C2" ?
inactive

Identify the outcome logged in this assay for the compound shown: CS(=O)(=O)N1CC(CCl)c2ccc(O)cc21 (configuration not stated)
inactive

Please let me know the test result on file for "C(#CP(c1ccccc1)c1ccccc1)P(C#CP(c1ccccc1)c1ccccc1)c1ccccc1" .
inactive

Can you look up the reported call for CC1(C)CCC2(C(=O)OC3OC(CO)C(O)C(O)C3O)CCC3(CO)C(=CCC4C5(C)CC(O)C(O)C(C)(C(=O)OC6OC(CO)C(O)C(O)C6O)C5CCC43C)C2C1 (configuration not stated) for me?
inactive

Recorded test outcome, item "COc1cc(C[C@@]2(C)[C@@H]3CCC[C@H](CO)[C@@]3(C)CC[C@@H]2C)c(Cl)c(OC)c1"
inactive

Please share the test call associated with "NC12CC3CC(C1)CC(Cl)(C3)C2" .
inactive

Hey, what did the test say about CC(=O)OCC1OC(n2cc([N+](=O)[O-])c(=O)[nH]c2=O)C(OC(C)=O)C(OC(C)=O)C1OC(C)=O (configuration not stated) ?
inactive

So what was the verdict on "O=[N+]([O-])/C=C/c1c(Cl)cccc1Cl" in this test?
inactive

GET /call?item= c1ccc(C2OC3(CCC[C@H]4C[C@H]43)O[C@H]2c2ccccc2)cc1 (some centres not stated) returns the recorded outcome of this test.
inactive

I would be grateful if you could indicate the recorded call for "C#C/C=C\CCCC/C=C\C#CC#CCCCC#CC#C[C@H](COS(=O)(=O)O)OS(=O)(=O)O" .
inactive

What did this assay record as the result for "C[C@]12CC[C@H]3[C@@H](CC[C@]4(O)C[C@@H](O)CC[C@]34/C=N/O)[C@@]1(O)CC[C@@H]2C1=COC(=O)C1" ?
active

Dear colleague, could you share the recorded outcome for C[C@H]1[C@H](C)CC[C@]2(C(=O)OC3OC(CO)C(O)C(O)C3O)CC[C@]3(C)C(=CC[C@@H]4[C@@]5(C)C[C@@H](O)[C@@H]6OC(=O)c7cc(O)c(O)c(O)c7-c7c(cc(O)c(O)c7O)C(=O)OC[C@]6(CO)[C@@H]5CC[C@]43C)[C@H]12 (some centres not stated) when you have a moment?
inactive

Recorded test outcome, item "C/C(=N\NC(=S)Nc1ccc(C)cc1)c1nc2cccnc2[nH]1"
inactive

Per the records of this test, what outcome belongs to "Cc1nc(=O)c2cc(CN(C)c3ccc(C(=O)N[C@@H](CCC(=O)O)C(=O)O)s3)ccc2[nH]1" ?
inactive

Field: outcome | Entry: "O=C1Nc2ccc(Br)cc2/C1=N/NC(=S)Nc1ccc(F)cc1"
inactive

Called result for "COc1ccc(OC)c2c1C(=O)C(O)=C(Cl)C2=O"
inactive

Status in this test for "COC(=O)[C@]1(C)CCC[C@]2(C)[C@@H](CCC(=O)C(C)C)[C@]3(C=O)O[C@@H]3C[C@H]21" ?
inactive

Give the logged outcome of this assay for the following compound: "CCOC(=O)c1cc2c([nH]1)c(O)cc1c2ccn1Cc1ccccc1"
inactive

What did the test return for "CC(=O)O[C@H]1CC[C@@]2(C)C(=CC[C@H]3[C@@H]4C/C(=C\c5ccncc5)[C@H](OC(C)=O)[C@@]4(C)CC[C@@H]32)C1" ?
inactive

Please indicate how the test categorized "C=C1c2nc3ccccc3n2C=C(c2ccc(Cl)cc2)N1c1ccc(OCCN2CCCCC2)cc1" .
inactive

Identify the outcome logged in this assay for the compound shown: "CN(C)CCn1c(=O)c2ccc3c4c(nn3CCN(C)C)c3cc(N)ccc3n(c1=O)c24"
active

Hey, what did the test say about CNC(=O)OC(COC)CN1CCN(c2ccccc2C)CC1 (configuration not stated) ?
inactive

Call for entry "O=C(CCN(C(=O)O)S(=O)(=O)c1ccc(NC(=O)c2ccccc2)cc1)NC1CCCCC1" :
inactive

Test call, this compound: "CCOC(=O)C(Cc1c(C=O)[nH]c2ccccc12)(NC(=O)c1ccccc1)C(=O)OCC"
inactive
